- target entity: T1, MPP8 chromodomain (residues 55-116), N-terminal His-tag (UniProt Q99549-1 55-116)
- T1 sequence (looked up): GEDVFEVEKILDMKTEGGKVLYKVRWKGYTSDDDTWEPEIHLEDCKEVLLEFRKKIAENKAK
- measurement description: AlphaScreen or HTRF
* marks the point of attachment. 4‑piperidine cap = not defined here; cyclohexyl = C1CCC(*)CC1
endpoint label: IC50 (nM)
Give the number; nM is assumed, so skip it.

Reported IC50 for {4‑piperidine cap}-FAFKS-OMe (reading uncertain; also: Lys4: lysine mimetic with a pyrroline substituent) [UNC6262] : what is it?
1400

Reported IC50 for {4‑piperidine cap}-FAFKS-OMe (reading uncertain; also: lysine mimetic with a piperidine substituent) [UNC6127] : what is it?
700

Reported IC50 for {4‑piperidine cap}-FAFKS-OMe (reading uncertain; also: Lys4: lysine mimetic with a tetrahydropyran substituent) [UNC6218] : what is it?
500

Reported IC50 for FAFKS (N-terminal 4-piperidine cap; lysine mimetic with a methyl-cyclopentyl amine; C-terminal methyl ester) [UNC6216] : what is it?
450

Reported IC50 for {4‑piperidine cap}-FAFK(cyclohexyl)S-OMe (reading uncertain; also: Lys4: lysine mimetic with a cyclohexyl substituent) [UNC6217] : what is it?
400

Reported IC50 for FAFKS (N-terminal 4-piperidine cap; lysine mimetic with increased steric bulk on the lysine amine; C-terminal methyl ester) [UNC6254] : what is it?
800
